# experimental system: 5-hydroxytryptamine receptor 1A (Rattus norvegicus, UniProt P19327)
# Sequence (P19327 whole entry): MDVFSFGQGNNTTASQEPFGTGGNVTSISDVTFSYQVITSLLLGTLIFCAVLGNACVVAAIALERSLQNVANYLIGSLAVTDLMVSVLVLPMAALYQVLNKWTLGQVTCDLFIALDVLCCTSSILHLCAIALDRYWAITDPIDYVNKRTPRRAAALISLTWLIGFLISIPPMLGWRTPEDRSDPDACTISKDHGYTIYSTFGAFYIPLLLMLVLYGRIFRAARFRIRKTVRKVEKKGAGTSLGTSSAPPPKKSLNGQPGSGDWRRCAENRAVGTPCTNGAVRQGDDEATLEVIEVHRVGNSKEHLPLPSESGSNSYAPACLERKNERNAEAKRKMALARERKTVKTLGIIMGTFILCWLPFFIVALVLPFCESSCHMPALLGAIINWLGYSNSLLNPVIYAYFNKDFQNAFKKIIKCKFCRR
5-hydroxytryptamine receptor 1A (Rattus norvegicus, UniProt P19327) Ki, compiled from various sources.

smi	inequality operator	Ki [nM]
CN1CCc2cc(OCCCN3CCC(c4noc5cc(F)ccc45)CC3)ccc2C1=O	>	10000
c1ccc(N2CCN(CCCCCCN3CCN(c4ccccn4)CC3)CC2)nc1	=	16
O=C(c1ccc(Cl)c(Cl)c1)N1CCC(F)(CNCc2cccc(-c3ccco3)n2)CC1	=	1.05
O=C(c1ccc(Cl)c(Cl)c1)N1CCC(CNCc2ccccn2)CC1	=	26.3
COc1cccc([C@H]2CC[C@@H](NCCOc3ccccn3)CC2)c1	=	373
COc1ccccc1N1CCN(CCCCOc2ccc3c(C)c(C)c(=O)oc3c2)CC1	>	10000

* * *

5-hydroxytryptamine receptor 1A (Rattus norvegicus, UniProt P19327) Ki, compiled from various sources.
measured metric: Ki (nM)

molecule	unit symbol	observed result
O=C1CCOc2c(OCCNCCCCc3ccc4c(c3)OCO4)cc(F)cc21	nM	2.67
Cc1cn2c3c(=O)n(C)c(=O)n(C)c3nc2n1CCCCCN1CCN(c2ccccc2O)CC1	nM	12
O=C1Nc2cc(F)ccc2C1CCCCN1CCN(c2cccc(Cl)c2)CC1 (configuration not stated)	nM	118
O=C(c1ccc(Cl)c(Cl)c1)N1CCC(F)(CNCc2ccccn2)CC1	nM	5.13
O=C1CCc2cc(CCCN3CCC(c4noc5cc(F)ccc45)CC3)cc3c2N1CC3	nM	38.7
COc1cccc(OC)c1OCCNC[C@H]1COc2cccc(OC)c2O1.Cl	nM	0.851
Cn1c(=O)sc2cc(CCN3CCN(Cc4ccc(Cl)cc4Cl)CC3)ccc21	nM	100
